Reference for the values: patent US20240400718A1

# Study Target: S#084: VL-L2-VH CAR-T
# Experimental Details: flow cytometry on CAR-T cells; PE-labeled secondary antibody; PE-positive cells / total cells
Test Readout: Reactivity (%)
One number for each entry, in %.

Which Reactivity (%) is listed for 2D12-B12 (antibody, V domains shown) VH: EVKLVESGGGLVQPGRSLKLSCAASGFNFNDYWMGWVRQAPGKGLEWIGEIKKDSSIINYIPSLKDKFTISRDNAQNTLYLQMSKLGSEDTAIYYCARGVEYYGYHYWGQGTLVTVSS VL: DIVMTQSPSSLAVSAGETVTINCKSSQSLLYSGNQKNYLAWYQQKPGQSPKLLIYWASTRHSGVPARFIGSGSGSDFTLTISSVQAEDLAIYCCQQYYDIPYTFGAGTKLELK ? 0.3
